# Test system: H358 (non-small cell lung cancer cell line)
# Assay: KRAS Cell Titer Glo (CTG) cell proliferation assay, H358
# Assay type: cell-based
# Assay Conditions: Homo sapiens, NCI-H358, 168 h; H358 cells, 7-day CTG, geomean IC50
Measured Metric: IC50 (nM)

Example cases with answers are listed next.
| Molecular String | IC50 / nM |
| --- | --- |
| C=C1CN2CCC[C@@]2(COc2nc3c4c(nc(-c5c(Cl)c(Cl)cc6[nH]ncc56)c(F)c4n2)OC[C@@H]2COCCCN32)C1 | 136 |
| C=C1CN2CCC[C@@]2(COc2nc3c4c(nc(-c5c(Cl)ccc6[nH]ncc56)c(F)c4n2)OC[C@@H]2COCCCN32)C1 | 847 |

1: C=C1CN2C[C@@H](O)C[C@@]2(COc2nc3c4c(nc(-c5c(C6CC6)c(Cl)cc6[nH]ncc56)c(F)c4n2)OC[C@@H]2COCCCN32)C1
2: C=C1CN2CCC[C@@]2(COc2nc3c4c(nc(-c5c(C)ccc6[nH]ncc56)c(F)c4n2)OC[C@@H]2COCCCN32)C1
3: C=C1CN2CCC[C@@]2(COc2nc3c4c(nc(-c5c6c(cc7[nH]ncc57)CCC[C@@H]6C)c(F)c4n2)OC[C@@H]2COCCCN32)C1
4: C[C@@H]1CCCc2cc3[nH]ncc3c(-c3nc4c5c(nc(OC[C@@]67CCCN6C[C@H](F)C7)nc5c3F)N3CCCOC[C@H]3CO4)c21
Query string: Rank ascending by IC50. Record the ranking as a list of labels in the requested order.
Result string: 4, 1, 3, 2

###

# Tested On: KRAS G12D (Homo sapiens (Human), UniProt P01116, G12D)
# Sequence (P01116 other isoform, or with tags, fused parts or gaps G12D): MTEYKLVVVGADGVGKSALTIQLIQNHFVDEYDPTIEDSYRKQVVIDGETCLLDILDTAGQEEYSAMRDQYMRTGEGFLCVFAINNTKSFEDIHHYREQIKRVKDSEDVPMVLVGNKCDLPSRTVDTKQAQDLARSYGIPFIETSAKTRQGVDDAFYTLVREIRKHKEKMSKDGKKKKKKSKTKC
# Assay: SPR binding affinity and kinetics, GTPγS-loaded KRAS G12D
# Assay Conditions: GTPγS loaded protein, geomean
pKd: −log10 of the molar value.
Measured Metric: pKd

P: C[C@@H]1CCCc2cc3[nH]ncc3c(-c3nc4c5c(nc(OC[C@@]67CCCN6C/C(=C\F)C7)nc5c3F)N3CCCOC[C@H]3CO4)c21 [Example 54]
Q: C=C1CN2CC(F)C[C@@]2(COc2nc3c4c(nc(-c5c(C6CC6)c(Cl)cc6[nH]ncc56)c(F)c4n2)OC[C@@H]2COCCCN32)C1 (some centres unmarked) [Example 14]
R: C[C@@H]1CCCc2cc3[nH]ncc3c(-c3nc4c5c(nc(OC[C@@]67CCCN6CC(=C6COC6)C7)nc5c3F)N3CCCOC[C@H]3CO4)c21 [Example 47]
S: C=C1CN2CCC[C@@]2(COc2nc3c4c(nc(-c5c6c(cc7[nH]ncc57)CCC[C@H]6OC)c(F)c4n2)OC[C@@H]2COCCCN32)C1 (single isomer, unassigned) [Example 56]
Query string: Order by pKd, smallest first, the items presented above. Record the ranking as a list of labels in the requested order.
Result string: S, Q, R, P
(S: 7.47, Q: 8.30, R: 8.70, P: 9.00)

###

# Tested On: KRAS G12V (Homo sapiens (Human), UniProt P01116, G12V)
# Sequence (P01116 other isoform, or with tags, fused parts or gaps G12V): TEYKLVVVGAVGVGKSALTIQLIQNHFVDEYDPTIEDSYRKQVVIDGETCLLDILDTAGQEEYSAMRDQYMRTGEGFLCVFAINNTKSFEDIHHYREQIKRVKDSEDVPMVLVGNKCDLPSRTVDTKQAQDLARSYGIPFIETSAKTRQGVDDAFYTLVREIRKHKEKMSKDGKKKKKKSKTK
# Assay: SPR binding affinity and kinetics, GTPγS-loaded KRAS G12V
# Assay Conditions: GTPγS loaded protein, geomean
Measured Metric: Kd (nM)

A: C=C1CN2CCC[C@@]2(COc2nc3c4c(nc(-c5c(Cl)ccc6[nH]ncc56)c(F)c4n2)OC[C@@H]2COCCCN32)C1
B: Fc1c(-c2c(C3CC3)c(Cl)cc3[nH]ncc23)nc2c3c(nc(OC[C@@]45CCCN4CC(=C4CC4)C5)nc13)N1CCCOC[C@H]1CO2
C: COC/C=C1/CN2CCC[C@@]2(COc2nc3c4c(nc(-c5c(C6CC6)c(Cl)cc6[nH]ncc56)c(F)c4n2)OC[C@@H]2COCCCN32)C1 (relative stereo) [Example 48]
D: C=C1CN2CCC[C@@]2(COc2nc3c4c(nc(-c5c(C6CC6)c(Cl)cc6[nH]ncc56)c(F)c4n2)OC[C@@H]2CC[C@H](O)CN32)C1
E: C[C@@H]1CCCc2cc3[nH]ncc3c(-c3nc4c5c(nc(OC[C@@]67CCCN6C/C(=C\F)C7)nc5c3F)N3CCCOC[C@H]3CO4)c21
Query string: Rank by Kd (largest to smallest). Record the ranking as a list of labels in the requested order.
Result string: A, C, B, D, E
(A: 639 nM, C: 41 nM, B: 6 nM, D: 2 nM, E: 1 nM)

a: C=C1CN2CCC[C@@]2(COc2nc3c4c(nc(-c5c(C6CC6)c(Cl)cc6[nH]ncc56)c(F)c4n2)OC[C@@H]2CCCCN32)C1
b: Fc1c(-c2c(C3CC3)c(Cl)cc3[nH]ncc23)nc2c3c(nc(OC[C@]45CCCN4CC4(CC4)C5)nc13)N1CCCOC[C@H]1CO2
Query string: // max by Kd over [ a , b ] Please reply using the label of the selected record.
Result string: a
(a: 15 nM, b: 9 nM)

A: C=C1CN2CCC[C@@]2(COc2nc3c4c(nc(-c5c6c(cc7[nH]ncc57)CCCC6)c(F)c4n2)OC[C@@H]2COCCCN32)C1
B: C=C1CN2CCC[C@@]2(COc2nc3c4c(nc(-c5c(C(F)(F)F)c(Cl)cc6[nH]ncc56)c(F)c4n2)OC[C@@H]2COCCCN32)C1
C: C=C1CN2CCC[C@@]2(COc2nc3c4c(nc(-c5c(CC)c(Cl)cc6[nH]ncc56)c(F)c4n2)OC[C@@H]2COCCCN32)C1
Query string: Sort these molecules on Kd so the largest reading comes first. Record the ranking as a list of labels in the requested order.
Result string: A, C, B

A: COC/C=C1/CN2CCC[C@@]2(COc2nc3c4c(nc(-c5c(C6CC6)c(Cl)cc6[nH]ncc56)c(F)c4n2)OC[C@@H]2COCCCN32)C1 (relative stereo) [Example 49]
B: C=C1CN2CCC[C@@]2(COc2nc3c4c(nc(-c5c6c(cc7[nH]ncc57)CCC[C@@H]6C)c(F)c4n2)OC[C@@H]2COCCCN32)C1
C: Fc1c(-c2c(C3CC3)c(Cl)cc3[nH]ncc23)nc2c3c(nc(OC[C@@]45CCCN4CC(=C4COC4)C5)nc13)N1CCCOC[C@H]1CO2
Query string: Sort these molecules on Kd so the largest reading comes first. Record the ranking as a list of labels in the requested order.
Result string: A, B, C
(A: 58 nM, B: 36 nM, C: 4 nM)

I: C[C@@H]1CCCc2cc3[nH]ncc3c(-c3nc4c5c(nc(OC[C@@]67CCCN6C/C(=C/F)C7)nc5c3F)N3CCCOC[C@H]3CO4)c21
II: COC/C=C1\CN2CCC[C@@]2(COc2nc3c4c(nc(-c5c6c(cc7[nH]ncc57)CCC[C@H]6C)c(F)c4n2)OC[C@@H]2COCCCN32)C1
III: C=C1CN2CCC[C@@]2(COc2nc3c4c(nc(-c5c([C@@H]6C[C@H]6C)c(Cl)cc6[nH]ncc56)c(F)c4n2)OC[C@@H]2COCCCN32)C1 (single isomer, unassigned)
IV: C=C1CN2CCC[C@@]2(COc2nc3c4c(nc(-c5c6c(cc7[nH]ncc57)CCC[C@H]6OC)c(F)c4n2)OC[C@@H]2COCCCN32)C1 (single isomer, unassigned) [Example 56]
V: COC/C=C1\CN2CCC[C@@]2(COc2nc3c4c(nc(-c5c6c(cc7[nH]ncc57)CCC[C@H]6OC)c(F)c4n2)OC[C@@H]2COCCCN32)C1 (single isomer, unassigned) [Example 58]
Query string: Rank ascending by Kd. Record the ranking as a list of labels in the requested order.
Result string: I, II, III, IV, V
(I: 2 nM, II: 4 nM, III: 7 nM, IV: 23 nM, V: 81 nM)

a: COC/C=C1\CN2CCC[C@@]2(COc2nc3c4c(nc(-c5c(C6CC6)c(Cl)cc6[nH]ncc56)c(F)c4n2)OC[C@@H]2COCCCN32)C1
b: C=C1CN2CCC[C@@]2(COc2nc3c4c(nc(-c5c(C6CC6)c(Cl)cc6[nH]ncc56)c(F)c4n2)OC[C@@H]2COCC[C@H](C)N32)C1
Query string: Kindly compare a with b and tell me which has the lower Kd figure. Please reply using the label of the selected record.
Result string: a
